Provenance of the data: patent US12642805B2

protocol summary: single oral dose pharmacokinetic study in healthy and NASH subjects
Assay type: in vivo, human
condition info: human, plasma, po, 50 mg, 50 mg single oral dose, Healthy; read-out: Tmax, Geometric Mean
measurement kind: Tmax (h)

INSERT INTO results (compound, measurement_kind, units_text, test_value) VALUES
  ('C[C@H](CCCC(C)(C)O)[C@H]1CC[C@H]2[C@@H]3CC=C4C[C@@H](OS(=O)(=O)[O-])CC[C@]4(C)[C@H]3CC[C@]12C.[Na+] [25HC3S sodium, 25-hydroxycholesterol-3-sulfate sodium]', 'Tmax', 'h', 2.83);

====

protocol summary: Phase 1b 4-week oral dosing study in NASH patients: pharmacokinetics
Format: in vivo, human
condition info: both sexes, human, plasma, oral; 150 mg QD (n = 21); read-out: T1/2, mean (standard deviation) (converted)
measurement kind: half-life

INSERT INTO results (compound, test_value) VALUES
  ('C[C@H](CCCC(C)(C)O)[C@H]1CC[C@H]2[C@@H]3CC=C4C[C@@H](OS(=O)(=O)O)CC[C@]4(C)[C@H]3CC[C@]12C [25HC3S, 25-hydroxycholesterol-3-sulfate]', '2.7 h');
